tested on: Shigella flexneri; assay: growth AUC normalised to DMSO control (fraction of control); higher = less growth inhibition, active = hit call of the paper; settings: 20 µM
Where a name gives a salt, the structure may show the parent alone.
Record label 1 whenever growth AUC normalised to DMSO control is at 1 or higher; record label 0 when lower.

{"COMPOUND": "CCN1CCN(C(=O)N[C@@H](C(=O)N[C@@H]2C(=O)N3[C@@H]2SC(C)(C)[C@@H]3C(=O)O)c2ccccc2)C(=O)C1=O [Piperacillin sodium salt]", "TARGET UNDER TEST": "Shigella flexneri", "ANSWER LABEL": "label 0"}
{"COMPOUND": "CC(=O)c1ccc2c(c1)N(CCCN1CCC(CCO)CC1)c1ccccc1S2", "TARGET UNDER TEST": "Shigella flexneri", "ANSWER LABEL": "label 1"}
{"COMPOUND": "OC(CCN1CCCCC1)(c1ccccc1)C1CC2C=CC1C2 (centres undefined) [Biperiden hydrochloride]", "TARGET UNDER TEST": "Shigella flexneri", "ANSWER LABEL": "label 0"}

Does the reported growth AUC normalised to DMSO control for CCN1CCC[C@H]1CNC(=O)c1c(OC)ccc(Br)c1OC [Remoxipride hydrochloride] fall at or above the 1 mark?
label 1

Does the reported growth AUC normalised to DMSO control for COc1cc([C@@H]2c3cc4c(cc3[C@@H](O[C@@H]3O[C@@H]5CO[C@@H](C)O[C@H]5[C@H](O)[C@H]3O)[C@H]3COC(=O)[C@H]23)OCO4)cc(OC)c1O [Etoposide] fall at or above the 1 mark?
label 1

Does the reported growth AUC normalised to DMSO control for CC(=O)Nc1nnc(S(N)(=O)=O)s1 [Acetazolamide] fall at or above the 1 mark?
label 0

Does the reported growth AUC normalised to DMSO control for Cc1cccc(C)c1OCC(C)N (centres undefined) [Mexiletine hydrochloride] fall at or above the 1 mark?
label 1

Does the reported growth AUC normalised to DMSO control for Cc1nccn1CC1CCc2c(c3ccccc3n2C)C1=O (centres undefined) [Ondansetron hydrochloride] fall at or above the 1 mark?
label 1

Does the reported growth AUC normalised to DMSO control for CO/N=C(\C(=O)N[C@@H]1C(=O)N2C(C(=O)O)=C(COC(N)=O)CS[C@H]12)c1ccco1 [Cefuroxime sodium salt] fall at or above the 1 mark?
label 0

Does the reported growth AUC normalised to DMSO control for c1ccc(-c2ccc(C(c3ccccc3)n3ccnc3)cc2)cc1 (centres undefined) fall at or above the 1 mark?
label 1

---

tested on: S. enterica typhimurium tolC KO; assay: growth AUC normalised to DMSO control (median) (fraction of control); higher = less growth inhibition, active = hit call of the paper; conditions: 20 µM
Where a name gives a salt, the structure may show the parent alone.
MEASURE NAME: growth AUC normalised to DMSO control

Dear colleague, could you send me growth AUC normalised to DMSO control for each of the items below? Thanks.
1. O=C1CC[C@@H](C(=O)N2CSC[C@H]2C(=O)O)N1
2. Cc1ccc(S(=O)(=O)NCl)cc1 [Chloramine-T hydrate]
3. CC(C)(Oc1ccc(CCNC(=O)c2ccc(Cl)cc2)cc1)C(=O)O [Bezafibrate]
4. C=C1c2c(Cl)ccc(O)c2C(O)=C2C(=O)[C@]3(O)C(O)=C(C(N)=O)C(=O)[C@@H](N(C)C)[C@@H]3[C@@H](O)[C@H]12.O=C(O)c1cc(S(=O)(=O)O)ccc1O [Meclocycline sulfosalicylate]

1: 0.991 (inactive); 2: 1 (inactive); 3: 0.99 (inactive); 4: 0.00967 (active)

Dear colleague, could you send me growth AUC normalised to DMSO control for each of the items below? Thanks.
1. CC(C)c1nc(N(C)S(C)(=O)=O)nc(-c2ccc(F)cc2)c1/C=C/[C@@H](O)C[C@@H](O)CC(=O)O
2. CN1CC(O)c2cc(N=NC(N)=O)c(O)cc21 (stereo not drawn)
3. CC(=O)OCC(=O)[C@@]1(O)CC[C@H]2[C@@H]3CCC4=CC(=O)C=C[C@]4(C)[C@@]3(F)[C@@H](O)C[C@@]21C [Isoflupredone acetate]
4. NNc1nncc2ccccc12 [Hydralazine hydrochloride]
5. COc1ccc(C(=O)NCc2ccc(OCCN(C)C)cc2)cc1OC [Itopride]

1: 1.01 (inactive); 2: 0.952 (inactive); 3: 0.98 (inactive); 4: 0.992 (inactive); 5: 1 (inactive)

Dear colleague, could you send me growth AUC normalised to DMSO control for each of the items below? Thanks.
1. O=C(COc1ccc(Cl)cc1)N1CCN(Cc2ccc3c(c2)OCO3)CC1 [Fipexide hydrochloride]
2. CS(=O)(=O)CCNCc1ccc(-c2ccc3ncnc(Nc4ccc(OCc5cccc(F)c5)c(Cl)c4)c3c2)o1

1. 0.942 (inactive)
2. 0.99 (inactive)

Dear colleague, could you send me growth AUC normalised to DMSO control for each of the items below? Thanks.
1. CC(CCc1ccc(O)cc1)NCCc1ccc(O)c(O)c1 (stereo not drawn) [Dobutamine hydrochloride]
2. OC(CCCN1CCCCC1)(c1ccccc1)c1ccccc1 [Diphenidol hydrochloride]
3. Cc1ccc(C(=O)c2ccc(CC(=O)O)n2C)cc1 [Tolmetin sodium salt dihydrate]
4. CN1CCN(C2=Nc3ccccc3Oc3ccc(Cl)cc32)CC1 [Loxapine succinate]
5. O=C(NC(Cc1cc(=O)[nH]c2ccccc12)C(=O)O)c1ccc(Cl)cc1 (stereo not drawn) [Rebamipide]
6. CC(C)(C(=O)O)c1ccc(C(O)CCCN2CCC(C(O)(c3ccccc3)c3ccccc3)CC2)cc1 (stereo not drawn) [Fexofenadine hydrochloride]
7. Cc1c(NC(=O)c2cccnc2)c(=O)n(-c2ccccc2)n1C

0.998 (inactive)
0.987 (inactive)
1 (inactive)
0.96 (inactive)
0.998 (inactive)
1 (inactive)
0.996 (inactive)

Dear colleague, could you send me growth AUC normalised to DMSO control for each of the items below? Thanks.
1. CCC1(C)CC(=O)NC1=O (stereo not drawn) [Ethosuximide]
2. Nc1ccn([C@H]2CC[C@@H](CO)O2)c(=O)n1
3. CCCCC(CC)CNC(=N)NC(=N)NCCCCCCNC(=N)NC(=N)NCC(CC)CCCC (stereo not drawn) [Alexidine dihydrochloride]
4. CNCCC(Oc1ccccc1OC)c1ccccc1 (stereo not drawn) [Nisoxetine hydrochloride]
5. O=C(O)CSCC(=O)NC1CCSC1=O (stereo not drawn)

0.963 (inactive)
1.01 (inactive)
0.964 (inactive)
0.91 (inactive)
0.999 (inactive)

Dear colleague, could you send me growth AUC normalised to DMSO control for each of the items below? Thanks.
1. COc1ccc2c(c1)C(=O)N(CCc1ccc(S(=O)(=O)NC(=O)NC3CCCCC3)cc1)C(=O)C2(C)C
2. Cc1cc(-c2ccccc2)nnc1NCCN1CCOCC1 [Minaprine dihydrochloride]
3. Nc1ccc(S(=O)(=O)Nc2ncccn2)cc1
4. Cc1ccc(Cl)c(Nc2ccccc2C(=O)O)c1Cl [Meclofenamic acid sodium salt monohydrate]
5. COc1nc(C)nc(Cl)c1NC1=NCCN1

["1 (inactive)", "0.998 (inactive)", "1 (inactive)", "1.01 (inactive)", "0.999 (inactive)"]

---

Exercise: state measured growth AUC normalised to DMSO control for each of the molecules provided.
test system: S. enterica typhimurium WT; test: growth AUC normalised to DMSO control (median) (fraction of control); higher = less growth inhibition, active = hit call of the paper; conditions: 20 µM
Structures can show the parent of a compound that is named as a salt.
Give bare numbers.

Reference set (9 entries):
{"MOLECULE": "CC(C)(C)NC[C@H](O)c1ccc(O)c(CO)c1 [Levalbuterol hydrochloride]", "growth AUC normalised to DMSO control": 1.01}
{"MOLECULE": "Clc1ccccc1CN1CCc2sccc2C1 [Ticlopidine hydrochloride]", "growth AUC normalised to DMSO control": 0.967}
{"MOLECULE": "O=C(Oc1ccccc1)c1ccccc1O [Phenyl salicylate]", "growth AUC normalised to DMSO control": 1.01}
{"MOLECULE": "Nc1nc2[nH]cc(CCc3ccc(C(=O)N[C@@H](CCC(=O)O)C(=O)O)cc3)c2c(=O)[nH]1 [Pemetrexed disodium]", "growth AUC normalised to DMSO control": 1.01}
{"MOLECULE": "CN(C)CCN1C(=O)c2ccccc2N(C)c2ccccc21 [Dibenzepine hydrochloride]", "growth AUC normalised to DMSO control": 0.988}
{"MOLECULE": "CC(C)(C)C(=O)C(Oc1ccc(Cl)cc1)n1ccnc1 (stereo not given) [Climbazole]", "growth AUC normalised to DMSO control": 0.993}
{"MOLECULE": "CCCOc1ccccc1-c1nc2[nH]nnc2c(=O)[nH]1 [Zaprinast]", "growth AUC normalised to DMSO control": 1}
{"MOLECULE": "N[C@@H](Cc1cc(I)c(Oc2cc(I)c(O)c(I)c2)c(I)c1)C(=O)O [(L) Thyroxine]", "growth AUC normalised to DMSO control": 1.02}
{"MOLECULE": "C#C[C@]1(OC(C)=O)CC[C@H]2[C@@H]3CCC4=CC(=NO)CC[C@@H]4[C@H]3CC[C@@]21CC (mixture of isomers) [Norgestimate]", "growth AUC normalised to DMSO control": 0.999}

# input for lookup
Record summary for CN1CCN2c3ccccc3Cc3ccccc3C2C1 (stereo not given) [Mianserine hydrochloride] : reported growth AUC normalised to DMSO control = 0.994
